Data origin: patent US20140087995A1

# Lookup of reported hAmylin-R funct. EC50 (pM) keyed by entry
- experimental-system: T1, human amylin receptor (amylin 3(a) receptor: human calcitonin receptor plus RAMP-3) (human, UniProt P30988 25-474; O60896 24-148)
- T1 sequence (looked up) 1: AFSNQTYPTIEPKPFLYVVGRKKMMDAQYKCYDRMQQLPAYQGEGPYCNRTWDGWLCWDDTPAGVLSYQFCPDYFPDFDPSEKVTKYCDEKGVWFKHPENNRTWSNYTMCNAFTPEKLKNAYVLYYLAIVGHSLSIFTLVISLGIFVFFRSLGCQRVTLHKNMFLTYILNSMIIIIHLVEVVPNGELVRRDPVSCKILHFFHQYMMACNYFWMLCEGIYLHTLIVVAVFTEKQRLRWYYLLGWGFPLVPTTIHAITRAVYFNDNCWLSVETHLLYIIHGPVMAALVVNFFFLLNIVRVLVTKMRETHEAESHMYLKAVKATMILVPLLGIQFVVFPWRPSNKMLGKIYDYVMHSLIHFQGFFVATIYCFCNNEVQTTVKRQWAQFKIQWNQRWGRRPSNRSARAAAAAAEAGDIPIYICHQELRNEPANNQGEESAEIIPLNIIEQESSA
- T1 sequence (looked up) 2: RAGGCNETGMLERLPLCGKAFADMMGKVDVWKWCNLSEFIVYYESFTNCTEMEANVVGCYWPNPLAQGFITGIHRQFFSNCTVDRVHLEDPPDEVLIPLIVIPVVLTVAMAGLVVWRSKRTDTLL
- measurement-notes: cell-based or functional assay
Numbered stars: 1 amine (or outer) side, 2 acyl side, 3 side chain; on linkers, the order of the positions; unused ones are H or OH. Bridge positions count the residues as written; N and C are the ends. Side chains are listed from the residue outwards. Ends that are not written are not given here. * marks the point of attachment. C20 diacid = O=C(O)CCCCCCCCCCCCCCCCCCC(=O)*; γGlu = O=C(O)[C@H](CCC(=O)[*:2])N[*:1]
assay-readout: hAmylin-R funct. EC50 (pM)

- binder: "K([γGlu-C20 diacid])CNTATCATQRLAEFLRHSSPNFGAIPSSTNVGPHTY-NH2 (disulfide 2-7)"
  recorded-result: 101
- binder: "K([γGlu-γGlu-C20 diacid])CNTATCATQRLAEFLRHSSPNFGAILSSTPVGPETY-NH2 (disulfide 2-7 (inferred))"
  recorded-result: 222
- binder: "K([γGlu-γGlu-C20 diacid])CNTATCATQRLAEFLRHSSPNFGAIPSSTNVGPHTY-NH2 (disulfide 2-7 (inferred))"
  recorded-result: 172
- binder: "{C20 diacid-γGlu}-KCNTATCATQRLAEFLRHSSPNFGAILPSTNVGSETY-NH2 (disulfide 2-7, also called compound 33)"
  recorded-result: 243
- binder: "KCNTATCATQRLANFLRHSSPNFGAIPSSTNVGSETY (C20 diacid-gGlu on the alpha amino group of the N-terminal residue (Lys1); disulfide Cys2-Cys7 and C-terminal amide as in human amylin, also called compound 23) [N^α1-[(4S)-4-carboxy-4-(19-carboxynonadecanoylamino)butanoyl]-[Arg17,Pro21,Pro27,Glu35]-h-amylin]"
  recorded-result: 340
- binder: "K([γGlu-γGlu-C20 diacid])CNTATCATQRLADFLRHSSPNFGAIPSSTNVGPETY-NH2 (disulfide 2-7)"
  recorded-result: 159
